Hi there, I'd appreciate the recorded Ratio for every entry that follows.
assay: Effect on tyrosinase mRNA expression in mouse B16-4A5 cells assessed as tyrosinase mRNA/beta-actin mRNA expression ratio at 10 uM in presence of 1 mM theophylline after 72 hrs by RT-PCR; assay type: functional

[
  {
    "molecule": "COc1cccc(-c2cc(=O)c3ccccc3o2)c1N",
    "Ratio": 1.61
  },
  {
    "molecule": "COc1cc([C@@H]2Oc3cc([C@H]4Oc5cc(O)cc(O)c5C(=O)[C@@H]4O)ccc3O[C@H]2CO)ccc1O [SILYBIN B]",
    "Ratio": 1.27
  },
  {
    "molecule": "COc1cc([C@H]2Oc3cc([C@H]4Oc5cc(O)cc(O)c5C(=O)[C@@H]4O)ccc3O[C@@H]2CO)ccc1O [SILYBIN A]",
    "Ratio": 1.93
  },
  {
    "molecule": "COc1cc([C@@H]2Oc3ccc([C@H]4Oc5cc(O)cc(O)c5C(=O)[C@@H]4O)cc3O[C@H]2CO)ccc1O [ISOSILYBIN B]",
    "Ratio": 1.33
  }
]

# input for lookup
Ratio measured on COc1cc([C@H]2Oc3ccc([C@H]4Oc5cc(O)cc(O)c5C(=O)[C@@H]4O)cc3O[C@@H]2CO)ccc1O [ISOSILYBIN A] = 0.85

All figures here come from ChEMBL document CHEMBL1157646.
